The measured values listed here are drawn from ChEMBL document CHEMBL1933038.

Molecular target: UniProt:Q91ZY1
Sequence (Q91ZY1 whole entry): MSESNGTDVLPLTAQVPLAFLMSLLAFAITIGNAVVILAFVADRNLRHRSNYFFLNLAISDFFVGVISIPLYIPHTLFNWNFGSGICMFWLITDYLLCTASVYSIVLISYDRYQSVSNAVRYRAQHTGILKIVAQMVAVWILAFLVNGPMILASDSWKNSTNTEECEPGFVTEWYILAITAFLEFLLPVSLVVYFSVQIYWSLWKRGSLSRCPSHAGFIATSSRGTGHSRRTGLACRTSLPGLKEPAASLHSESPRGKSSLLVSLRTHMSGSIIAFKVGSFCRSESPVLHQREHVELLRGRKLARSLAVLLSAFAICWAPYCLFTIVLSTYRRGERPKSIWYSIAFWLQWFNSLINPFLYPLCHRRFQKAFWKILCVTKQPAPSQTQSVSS
endpoint: Ki (nM)
Numeric answer only, unit nM assumed.

Entry Nc1nc(N2CCNCC2)c2ccc(-c3ccco3)cc2n1 , Ki reported as 174

###

Assay: Oral bioavailability in mouse
Format: ADME, organism-based
Conditions: in vivo
endpoint: bioavailability
Hey, just the number and the unit after it is fine.

Summary for this molecule, Nc1nc(N2CCNCC2)c2ccc(-c3ccco3)cc2n1 : bioavailability is 47%

###

Molecular target: Histamine H1 receptor (Homo sapiens)
Sequence (P35367 whole entry): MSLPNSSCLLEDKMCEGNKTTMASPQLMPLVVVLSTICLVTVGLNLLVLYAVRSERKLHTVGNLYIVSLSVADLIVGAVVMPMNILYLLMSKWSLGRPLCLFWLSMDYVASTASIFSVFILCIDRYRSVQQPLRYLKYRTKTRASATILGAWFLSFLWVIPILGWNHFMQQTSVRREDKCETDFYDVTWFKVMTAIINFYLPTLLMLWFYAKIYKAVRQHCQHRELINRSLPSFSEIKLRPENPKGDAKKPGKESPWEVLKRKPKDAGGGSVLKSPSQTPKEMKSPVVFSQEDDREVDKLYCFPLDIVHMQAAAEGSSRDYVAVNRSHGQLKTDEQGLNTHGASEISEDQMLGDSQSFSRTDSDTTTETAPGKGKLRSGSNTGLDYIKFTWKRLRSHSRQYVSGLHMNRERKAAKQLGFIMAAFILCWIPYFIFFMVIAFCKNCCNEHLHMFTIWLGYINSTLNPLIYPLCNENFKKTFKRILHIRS
endpoint: Ki
Units required after the number.

Sample CN1CCN(c2nc(N)nc3cc(-c4ccoc4)ccc23)CC1 ; Ki observed: 7.37 µM

###

Target: UniProtKB Q9H3N8
Experiment: Antagonist activity at human H4 receptor expressed in HEK293T cells assessed as inhibition of histamine-induced [35S]GTPgammaS binding
Known IC50 of a selection of compounds
Give the value in nM but do not write nM after it.

// solved cases for IC50 follow
>>> reported("Nc1nc(N2CCNCC2)c2ccc(-c3ccco3)cc2n1")
106
>>> reported("CN1CCN(c2nc(N)nc3cc(-c4ccsc4)ccc23)CC1")
46
>>> reported("CN1CCN(c2nc(N)nc3cc(-c4ccco4)ccc23)CC1")
83

Documented IC50 of CN1CCN(c2nc(N)nc3cc(-c4ccoc4)ccc23)CC1 : 47

###

Target: Histamine H4 receptor (Homo sapiens, UniProt Q9H3N8)
Sequence (Q9H3N8 whole entry): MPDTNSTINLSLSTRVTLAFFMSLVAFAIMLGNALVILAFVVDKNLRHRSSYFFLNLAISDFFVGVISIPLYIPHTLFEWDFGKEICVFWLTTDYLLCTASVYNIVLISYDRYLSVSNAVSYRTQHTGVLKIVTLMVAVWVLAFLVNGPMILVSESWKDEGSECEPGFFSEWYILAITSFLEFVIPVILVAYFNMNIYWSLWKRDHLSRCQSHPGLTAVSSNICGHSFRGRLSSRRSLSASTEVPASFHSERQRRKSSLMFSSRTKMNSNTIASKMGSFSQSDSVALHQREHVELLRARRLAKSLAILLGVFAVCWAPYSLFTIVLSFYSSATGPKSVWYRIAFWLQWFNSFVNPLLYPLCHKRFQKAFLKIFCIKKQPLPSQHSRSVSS
Experiment: Antagonist activity at human H4 receptor expressed in HEK293T cells assessed as inhibition of histamine-induced [35S]GTPgammaS binding
Assay type: functional, cell-based, HEK-293T
Entries annotated with measured Ki
Report the figure along with its unit, number first.

Here is how some compounds turned out for Ki.
>>> reported("CN1CCN(c2nc(N)nc3cc(-c4ccoc4)ccc23)CC1")
"4 nM"
>>> reported("CN1CCN(c2nc(N)nc3cc(-c4ccsc4)ccc23)CC1")
"3 nM"
>>> reported("CN1CCN(c2nc(N)nc3cc(-c4ccco4)ccc23)CC1")
"5 nM"

Then there is this compound:
Observed Ki, Histamine H4 receptor (Homo sapiens, UniProt Q9H3N8), Nc1nc(N2CCNCC2)c2ccc(-c3ccco3)cc2n1 : 7 nM

###

Assay: Half life in mouse
Type: ADME, organism-based
Conditions: in vivo
endpoint: half-life
Note: state the figure and append the unit.

Nc1nc(N2CCNCC2)c2ccc(-c3ccco3)cc2n1 has a reported half-life of 6.87 h

###

Target: Histamine H4 receptor (Homo sapiens, UniProt Q9H3N8)
Test: Displacement of [3H]histamine from human H4 receptor expressed in HEK cell membranes
Design: species or system HEK293
Quick list: pKi per entry.
// field semantics: pKi = negative decimal log of concentration (mol/L)

>>> reported("Cc1ccc2nc(N)nc(N3CCN(C)CC3)c2c1")
6.19

Input CN1CCN(c2nc(N)nc3cc(-c4ccsc4)ccc23)CC1 . Output pKi: 8.40

Kindly note the recorded pKi for Nc1nc2c(c(N3CCNCC3)n1)CCC1=C2[C@H]2CCCC[C@H]2O1 , which is 8.22

CC(=O)c1cccc(-c2cccc3c(N4CCN(C)CC4)nc(N)nc23)c1 yielded pKi of 6.17

For record CC(=O)c1cccc(-c2ccc3c(N4CCN(C)CC4)nc(N)nc3c2)c1 the listed pKi is 7.82

Measured pKi, CN1CCN(c2nc3cc(Cl)c(Cl)cc3[nH]c2=O)CC1 : 8.22

Memo: CN1CCN(c2nc(N)nc3ccccc23)CC1 , reported pKi: 7.49

Form: compound = CN1CCN(c2nc(N)nc3cc(-c4ccco4)ccc23)CC1 ; pKi = 8.30

Reported pKi of CN1CCN(c2ccnc(N)n2)CC1 : 7.51

Nc1nc(N2CCNCC2)c2ccc(-c3ccco3)cc2n1 has a reported pKi of 7.80

Consider CN1CCN(c2ncnc3ccccc23)CC1 . Its measured pKi is 6.48

###

Test: Metabolic stability in rat liver microsomes assessed as compound remaining after 60 mins
Format: ADME, Microsome
Conditions: read-out: Stability
endpoint: remaining at 1 h (%)
Express the result in % but write the number alone.

Reported remaining at 1 h for Nc1nc(N2CCNCC2)c2ccc(-c3ccco3)cc2n1 was 83
